Parameter: Mean % WT Binding. Scope: all listed entries.
- system.name: human CD33 R362A (human, UniProt P20138 18-364)
- Sequence (P20138 18-364 R362A limits assumed): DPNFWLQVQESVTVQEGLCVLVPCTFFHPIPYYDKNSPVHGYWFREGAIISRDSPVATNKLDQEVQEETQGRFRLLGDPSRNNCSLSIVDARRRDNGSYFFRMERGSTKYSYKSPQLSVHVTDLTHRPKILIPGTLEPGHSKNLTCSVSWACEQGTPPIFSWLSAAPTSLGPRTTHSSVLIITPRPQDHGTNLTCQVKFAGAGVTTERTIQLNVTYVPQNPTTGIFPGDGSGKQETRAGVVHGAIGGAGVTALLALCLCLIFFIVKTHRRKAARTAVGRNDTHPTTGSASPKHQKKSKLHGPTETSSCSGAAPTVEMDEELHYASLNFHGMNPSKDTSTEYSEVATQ
- procedure.details: flow cytometry, alanine scan

Solved entries (count: 3):
{"columns": ["binder", "Mean % WT Binding"],
 "data": [
  ["Refmab #1 (antibody, V domains shown, The alanine scan used IgG or Fab; also called hP67.6) VH: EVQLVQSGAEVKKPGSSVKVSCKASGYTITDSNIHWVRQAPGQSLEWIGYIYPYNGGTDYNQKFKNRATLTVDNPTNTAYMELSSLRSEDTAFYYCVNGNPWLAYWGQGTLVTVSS VL: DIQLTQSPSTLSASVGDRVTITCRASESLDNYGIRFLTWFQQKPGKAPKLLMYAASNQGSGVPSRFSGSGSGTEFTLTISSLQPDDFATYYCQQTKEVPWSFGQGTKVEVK", "104 % of WT"],
  ["Refmab #4 (antibody, V domains shown, The alanine scan used IgG or Fab) VH: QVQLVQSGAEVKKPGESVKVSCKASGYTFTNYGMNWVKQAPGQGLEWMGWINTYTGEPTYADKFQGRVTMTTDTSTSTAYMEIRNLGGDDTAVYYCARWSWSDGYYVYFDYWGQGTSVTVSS VL: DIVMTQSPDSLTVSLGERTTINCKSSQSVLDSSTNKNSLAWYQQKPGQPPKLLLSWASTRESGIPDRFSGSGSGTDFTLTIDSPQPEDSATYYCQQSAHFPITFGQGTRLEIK", "104 % of WT"],
  ["Refmab #2 (antibody, V domains shown, The alanine scan used IgG or Fab) VH: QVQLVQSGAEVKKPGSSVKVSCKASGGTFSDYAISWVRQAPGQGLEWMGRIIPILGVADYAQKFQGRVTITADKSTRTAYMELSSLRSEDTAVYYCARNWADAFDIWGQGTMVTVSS VL: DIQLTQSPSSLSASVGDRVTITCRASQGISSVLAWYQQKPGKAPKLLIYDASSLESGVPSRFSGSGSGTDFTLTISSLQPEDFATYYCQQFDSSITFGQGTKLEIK", "119 % of WT"]
]}

Here's the next entry for you.
Q: Give me measured Mean % WT Binding, please, for this binder: Refmab #3 (antibody, V domains shown, The alanine scan used IgG or Fab) VH: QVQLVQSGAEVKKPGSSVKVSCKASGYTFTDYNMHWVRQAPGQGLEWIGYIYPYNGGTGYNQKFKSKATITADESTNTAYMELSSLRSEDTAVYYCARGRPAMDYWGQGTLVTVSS VL: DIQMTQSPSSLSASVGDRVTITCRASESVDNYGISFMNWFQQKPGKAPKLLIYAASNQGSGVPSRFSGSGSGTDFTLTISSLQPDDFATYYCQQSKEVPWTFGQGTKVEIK
Ans: 114 % of WT
